- Tested on: TNF-α
- EXPERIMENT: Inhibition of TNF-α production following LPS-stimulation of human whole blood
- Type: cell-based
- MEASUREMENT CONDITIONS: LPS-stimulated, in vitro, read-out: IC50 for inhibiting production of TNF-α following LPS-stimulation of human whole blood
The compounds listed here are annotated with their IC50.

Nc1cccc2c1C(=O)N(C1CCC(=O)NC1=O)C2=O (centres unmarked) :: ~25 nM

Give its IC50 value. Item: Nc1cccc2c1CN(C1CCC(=O)NC1=O)C2=O (centres unmarked)
~480 nM
